Emax: recorded values
target: GluN1/GluN2A NMDARs (Rattus norvegicus, UniProt P35439+Q00959); assay: Two-electrode voltage-clamp recordings, Xenopus laevis oocytes expressing GluN1/GluN2A; assay type: cell-based; conditions: saturating glutamate/glycine 100/30 µM; mean ± SEM; read-out: Maximal Degree of Modulation (% of control)
Sequence (Q00959 23-1464, other chains not shown): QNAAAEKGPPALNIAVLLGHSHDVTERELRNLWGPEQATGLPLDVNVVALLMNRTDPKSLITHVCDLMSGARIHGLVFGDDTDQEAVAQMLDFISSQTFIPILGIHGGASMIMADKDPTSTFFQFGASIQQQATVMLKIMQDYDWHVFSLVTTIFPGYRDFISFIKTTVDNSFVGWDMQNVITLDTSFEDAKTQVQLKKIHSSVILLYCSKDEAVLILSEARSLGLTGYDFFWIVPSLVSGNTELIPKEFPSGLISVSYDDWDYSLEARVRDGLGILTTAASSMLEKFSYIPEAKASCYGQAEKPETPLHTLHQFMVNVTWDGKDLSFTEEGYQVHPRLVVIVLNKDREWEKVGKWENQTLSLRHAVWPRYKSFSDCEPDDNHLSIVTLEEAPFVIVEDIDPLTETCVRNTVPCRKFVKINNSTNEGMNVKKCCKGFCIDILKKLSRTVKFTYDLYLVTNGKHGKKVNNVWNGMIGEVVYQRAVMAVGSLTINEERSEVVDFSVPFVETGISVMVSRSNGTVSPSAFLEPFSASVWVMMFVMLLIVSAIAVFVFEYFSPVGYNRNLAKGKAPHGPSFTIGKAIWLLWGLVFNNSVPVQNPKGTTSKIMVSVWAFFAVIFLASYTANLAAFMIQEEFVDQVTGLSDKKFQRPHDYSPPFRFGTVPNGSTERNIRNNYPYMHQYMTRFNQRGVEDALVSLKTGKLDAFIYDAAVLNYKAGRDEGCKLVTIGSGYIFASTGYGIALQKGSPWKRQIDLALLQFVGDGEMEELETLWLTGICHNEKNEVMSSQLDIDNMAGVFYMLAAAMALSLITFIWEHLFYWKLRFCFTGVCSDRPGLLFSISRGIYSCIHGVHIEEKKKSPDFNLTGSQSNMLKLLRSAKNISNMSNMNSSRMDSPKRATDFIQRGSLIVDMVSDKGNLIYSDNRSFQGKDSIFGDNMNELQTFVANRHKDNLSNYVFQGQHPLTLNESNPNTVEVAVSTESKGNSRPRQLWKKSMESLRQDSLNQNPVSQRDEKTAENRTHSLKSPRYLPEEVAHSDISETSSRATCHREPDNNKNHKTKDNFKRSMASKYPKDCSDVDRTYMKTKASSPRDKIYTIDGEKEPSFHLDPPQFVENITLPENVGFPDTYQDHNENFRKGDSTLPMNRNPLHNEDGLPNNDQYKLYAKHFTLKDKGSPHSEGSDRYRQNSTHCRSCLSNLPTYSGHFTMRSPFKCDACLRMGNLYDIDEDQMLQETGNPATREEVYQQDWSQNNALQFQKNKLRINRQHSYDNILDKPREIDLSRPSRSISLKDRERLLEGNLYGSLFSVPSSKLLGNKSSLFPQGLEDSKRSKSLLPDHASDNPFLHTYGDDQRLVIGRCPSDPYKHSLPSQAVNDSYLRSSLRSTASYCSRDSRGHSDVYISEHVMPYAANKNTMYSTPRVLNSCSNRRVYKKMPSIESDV
Provide the reading as a plain figure in %.

Worked cases, answers included:
The recorded Emax for entry CCOC(=O)c1c(NC(=O)CC2SC(=N)NC2=O)sc2c1CCCC2 (stereo not drawn) equals 32

Looking up CC(C)(C)OC(=O)c1c(NC(=O)CC2SC(=N)NC2=O)sc2c1CCCC2 (stereo not drawn) , I found its Emax recorded as 52

Query CCCCOC(=O)c1c(NC(=O)CC2SC(=N)NC2=O)sc2c1CCCC2 (stereo not drawn) yields Emax of 59

More entries:
Note to self: Emax recorded for CC(C)OC(=O)c1c(NC(=O)CC2SC(=N)NC2=O)sc2c1CCCC2 (stereo not drawn) was 36

Lab book: Emax of CC1CCc2c(sc(NC(=O)CC3SC(=N)NC3=O)c2C(=O)OC(C)C)C1 (stereo not drawn) noted as 19

What the record says about CCOC(=O)c1c(NC(=O)CC2SC(=N)NC2=O)sc2c1CCC(C)C2 (stereo not drawn) : Emax is 6

# credit: paper PMC5967867
